System Tested: T1, LNX2_3, Q8N448
T1 sequence (Q8N448 463-564, limits assumed, looked up): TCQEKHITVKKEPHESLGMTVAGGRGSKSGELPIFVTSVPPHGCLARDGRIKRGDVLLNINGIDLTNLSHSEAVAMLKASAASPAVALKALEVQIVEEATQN
Experimental Protocol: holdup assay
Parameters: key: below the threshold = too weak to quantify, mostly under pKd 3.1 to 4
Experimental Context: plain residues with an end cap or a label only (N-terminal biotin on a linker: ado-ado)
Quantity Kind: pKd

>>> print(df.to_string())
                        binder           meas_value
0  TKEIPNCTSV [SORCS3, Q9UPU3]  below the threshold
1   RGKNRRQSIF [CDK18, Q07002]  below the threshold
2   TFSRRPKTRV [CD226, Q15762]                 3.61
3  EKPIDSETKM [SLC1A3, P43003]  below the threshold

Sourced from paper PMC9482650
